Assay: DRUGMATRIX: Potassium Channel [KATP] radioligand binding (ligand: [3H] Glyburide)
Type: cell membranes, Membrane
Details: hit-t15; Not Active = under 50% inhibition at 10 µM; read-out: IC50
QUANTITY KIND: IC50 (nM)

{"MOLECULE": "Cc1cnc(C(=O)NCCc2ccc(S(=O)(=O)NC(=O)NC3CCCCC3)cc2)cn1 [GLIPIZIDE]", "UNIT": "nM", "NUMERIC READOUT": 398}

###

Assay: DRUGMATRIX: Sigma2 radioligand binding (ligand: [3H] Ifenprodil)
Type: cell membranes, Rattus norvegicus, Wistar, Brain, Membrane
Conditions: Not Active = under 50% inhibition at 10 µM
QUANTITY KIND: IC50

{"COMPOUND": "CC(C)(CO)C(O)C(=O)NCCCO (configuration not stated) [PANTHENOL]", "QUANTITY KIND": "IC50", "RESULT": "Not Active"}
{"COMPOUND": "CN1C[C@H](C(=O)N[C@]2(C)O[C@@]3(O)[C@@H]4CCCN4C(=O)[C@H](Cc4ccccc4)N3C2=O)C[C@@H]2c3cccc4[nH]cc(c34)C[C@H]21 [DIHYDROERGOTAMINE]", "QUANTITY KIND": "IC50", "RESULT": "Not Active"}
{"COMPOUND": "COc1cc(CNC(=O)CCCC/C=C/C(C)C)ccc1O [CAPSAICIN]", "QUANTITY KIND": "IC50", "RESULT": "Not Active"}
{"COMPOUND": "CO[C@@]1(NC(=O)CSCC#N)C(=O)N2C(C(=O)O)=C(CSc3nnnn3C)CS[C@@H]21 [CEFMETAZOLE]", "QUANTITY KIND": "IC50", "RESULT": "Not Active"}
{"COMPOUND": "Nc1nc(Cl)nc2c1ncn2[C@H]1C[C@H](O)[C@@H](CO)O1 [CLADRIBINE]", "QUANTITY KIND": "IC50", "RESULT": "Not Active"}
{"COMPOUND": "C[C@@H]1CC[C@H]2[C@@H](C)C(=O)O[C@@H]3O[C@@]4(C)CC[C@@H]1[C@]32OO4 [ARTEMISININ]", "QUANTITY KIND": "IC50", "RESULT": "Not Active"}
{"COMPOUND": "COc1cc(C(=O)NS(=O)(=O)c2ccccc2C)ccc1Cc1cn(C)c2ccc(NC(=O)OC3CCCC3)cc12 [ZAFIRLUKAST]", "QUANTITY KIND": "IC50", "RESULT": "Not Active"}
{"COMPOUND": "COc1ncnc(NS(=O)(=O)c2ccc(N)cc2)c1OC [SULFADOXINE]", "QUANTITY KIND": "IC50", "RESULT": "Not Active"}
{"COMPOUND": "Cc1cccc(Nc2ccccc2C(=O)O)c1C [MEFENAMIC ACID]", "QUANTITY KIND": "IC50", "RESULT": "Not Active"}
{"COMPOUND": "Nc1ccc(S(=O)(=O)Nc2nccs2)cc1 [SULFATHIAZOLE]", "QUANTITY KIND": "IC50", "RESULT": "Not Active"}
{"COMPOUND": "Cc1cn[nH]c1 [FOMEPIZOLE]", "QUANTITY KIND": "IC50", "RESULT": "Not Active"}
{"COMPOUND": "NC(=O)N1c2ccccc2C=Cc2ccccc21 [CARBAMAZEPINE]", "QUANTITY KIND": "IC50", "RESULT": "Not Active"}
{"COMPOUND": "Nc1ccc(S(=O)(=O)Nc2ncccn2)cc1 [SULFADIAZINE]", "QUANTITY KIND": "IC50", "RESULT": "Not Active"}
{"COMPOUND": "Nc1nc(N)nc(NC2CC2)n1 [CYROMAZINE]", "QUANTITY KIND": "IC50", "RESULT": "Not Active"}
{"COMPOUND": "CC[C@H](C)C(=O)O[C@H]1C[C@H](O)C=C2C=C[C@H](C)[C@H](CC[C@@H](O)C[C@@H](O)CC(=O)O)[C@H]21 [PRAVASTATIN]", "QUANTITY KIND": "IC50", "RESULT": "Not Active"}
{"COMPOUND": "CCc1oc2ccccc2c1C(=O)c1cc(Br)c(O)c(Br)c1 [BENZBROMARONE]", "QUANTITY KIND": "IC50", "RESULT": "Not Active"}
{"COMPOUND": "CN[C@@H]1[C@H](O)[C@H](NC)[C@H]2O[C@@]3(O)C(=O)C[C@@H](C)O[C@H]3O[C@@H]2[C@H]1O [SPECTINOMYCIN]", "QUANTITY KIND": "IC50", "RESULT": "Not Active"}

###

Assay: DRUGMATRIX: Phorbol Ester radioligand binding (ligand: [3H] PDBu)
Format: cell membranes, Mus musculus, ICR, Brain, Membrane
Details: Not Active = under 50% inhibition at 10 µM
QUANTITY KIND: Ki

{"COMPOUND": "C=C(CC)C(=O)c1ccc(OCC(=O)O)c(Cl)c1Cl", "RESULT": "Not Active"}
{"COMPOUND": "Cc1cn([C@H]2C[C@H](N=[N+]=[N-])[C@@H](CO)O2)c(=O)[nH]c1=O", "RESULT": "Not Active"}
{"COMPOUND": "O=P1(N(CCCl)CCCl)NCCCO1 (stereo not given) [CYCLOPHOSPHAMIDE ANHYDROUS]", "RESULT": "Not Active"}
{"COMPOUND": "Cc1c(F)c(N2CCNC(C)C2)cc2c1c(=O)c(C(=O)O)cn2C1CC1 (stereo not given)", "RESULT": "Not Active"}
{"COMPOUND": "CC(C)C[C@H]1C(=O)N2CCC[C@H]2[C@]2(O)O[C@](NC(=O)[C@@H]3C=C4c5cccc6[nH]c(Br)c(c56)C[C@H]4N(C)C3)(C(C)C)C(=O)N12", "RESULT": "Not Active"}
{"COMPOUND": "CO[C@@]1(NC(=O)CSCC#N)C(=O)N2C(C(=O)O)=C(CSc3nnnn3C)CS[C@@H]21", "RESULT": "Not Active"}
{"COMPOUND": "COc1ccc(/C=C/C(=O)Nc2ccccc2C(=O)O)cc1OC", "RESULT": "Not Active"}
{"COMPOUND": "CN1C[C@H](C(=O)N[C@]2(C)O[C@@]3(O)[C@@H]4CCCN4C(=O)[C@H](Cc4ccccc4)N3C2=O)C[C@@H]2c3cccc4[nH]cc(c34)C[C@H]21 [DIHYDROERGOTAMINE]", "RESULT": "Not Active"}
{"COMPOUND": "Nc1nc(Cl)nc2c1ncn2[C@H]1C[C@H](O)[C@@H](CO)O1", "RESULT": "Not Active"}
{"COMPOUND": "Nc1nc2c(c(=O)[nH]1)N(C=O)C(CNc1ccc(C(=O)N[C@@H](CCC(=O)O)C(=O)O)cc1)CN2 (stereo not given in full)", "RESULT": "Not Active"}
{"COMPOUND": "N[C@@H](Cc1ccc(F)cc1)C(=O)O", "RESULT": "Not Active"}
{"COMPOUND": "CCOC(=O)C1=C(C)NC(C)=C(C(=O)OC)C1c1cccc(Cl)c1Cl (stereo not given)", "RESULT": "Not Active"}
{"COMPOUND": "COc1cc(CNC(=O)CCCC/C=C/C(C)C)ccc1O", "RESULT": "Not Active"}
{"COMPOUND": "Cc1cccc(Nc2ccccc2C(=O)O)c1C", "RESULT": "Not Active"}
{"COMPOUND": "C=C1/C(=C\\C=C2/CCC[C@]3(C)[C@@H]([C@H](C)CCCC(C)C)CC[C@@H]23)C[C@@H](O)C[C@@H]1O", "RESULT": "Not Active"}
{"COMPOUND": "CC[C@H]1OC(=O)[C@H](C)[C@@H](O[C@H]2C[C@@](C)(OC)[C@@H](O)[C@H](C)O2)[C@H](C)[C@@H](O[C@@H]2O[C@H](C)C[C@H](N(C)C)[C@H]2O)[C@](C)(OC)C[C@@H](C)C(=O)[C@H](C)[C@@H](O)[C@]1(C)O", "RESULT": "Not Active"}
{"COMPOUND": "CC(=O)O[C@]1(C(C)=O)CC[C@H]2[C@@H]3C=C(Cl)C4=CC(=O)[C@@H]5C[C@@H]5[C@]4(C)[C@H]3CC[C@@]21C [CYPROTERONE ACETATE]", "RESULT": "Not Active"}
{"COMPOUND": "C[C@H](C(=O)O)c1cccc(C(=O)c2ccccc2)c1", "RESULT": "Not Active"}
{"COMPOUND": "CCn1cc(C(=O)O)c(=O)c2cc(F)c(N3CCNCC3)nc21", "RESULT": "Not Active"}
{"COMPOUND": "CCC[C@@H]1C[C@@H](C(=O)N[C@@H]([C@H]2O[C@H](SC)[C@H](O)[C@@H](O)[C@H]2O)[C@H](C)Cl)N(C)C1", "RESULT": "Not Active"}
{"COMPOUND": "CC(C(=O)O)c1ccc(CC2CCCC2=O)cc1 (stereo not given)", "RESULT": "Not Active"}
{"COMPOUND": "NC[C@@H]1O[C@H](O[C@H]2[C@@H](O)[C@H](O[C@@H]3[C@@H](O)[C@H](N)C[C@H](N)[C@H]3O[C@H]3O[C@H](CN)[C@@H](O)[C@H](O)[C@H]3N)O[C@@H]2CO)[C@H](N)[C@@H](O)[C@@H]1O", "RESULT": "Not Active"}
{"COMPOUND": "Oc1ccccc1O", "RESULT": "Not Active"}
{"COMPOUND": "CC(C(=O)O)c1ccc(-c2ccccc2)c(F)c1 (stereo not given)", "RESULT": "Not Active"}
{"COMPOUND": "COc1ccccc1OCC(O)COC(N)=O (stereo not given)", "RESULT": "Not Active"}
{"COMPOUND": "CC(C)(Oc1ccc(C2CC2(Cl)Cl)cc1)C(=O)O (stereo not given) [CIPROFIBRATE]", "RESULT": "Not Active"}
{"COMPOUND": "NC[C@H]1O[C@H](O[C@H]2[C@H](O)[C@@H](O[C@H]3O[C@H](CO)[C@@H](O)[C@H](N)[C@H]3O)[C@H](N)C[C@@H]2N)[C@H](O)[C@@H](O)[C@@H]1O", "RESULT": "Not Active"}
{"COMPOUND": "Cc1cccc(Nc2cc(Cl)nc(SCC(=O)O)n2)c1C", "RESULT": "Not Active"}
{"COMPOUND": "COc1ccc2cc(CCC(C)=O)ccc2c1", "RESULT": "Not Active"}
{"COMPOUND": "O=C(O)c1cc(=O)c2c(OCC(O)COc3cccc4oc(C(=O)O)cc(=O)c34)cccc2o1", "RESULT": "Not Active"}
